System: SW48;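 also: growth inhibition of SW48 cells, read out with a cell viability assay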
Experiment: cells
Assay type: functional, cell-based, Homo sapiens
Conditions: Homo sapiens, SW48
Description: SANGER: Inhibition of human SW48 cell growth in a cell viability assay.
pIC50: −log10 of the molar value.
Measured pIC50 of individual entries
measurementLabel: pIC50

[[record]]
molecule = "C=CCc1cccc(/C=N/NC(=O)CN2CCN(Cc3ccccc3)CC2)c1O"
result = "< 5.59"

[[record]]
molecule = "O=c1cc(-c2cccc3c2Sc2ccccc2S3)oc(N2CCOCC2)c1"
result = "< 5.00"

[[record]]
molecule = "CN(Cc1cnc2nc(N)nc(N)c2n1)c1ccc(C(=O)N[C@@H](CCC(=O)O)C(=O)O)cc1 [METHOTREXATE]"
result = "< 6.70"

[[record]]
molecule = "Nc1ccn([C@@H]2O[C@H](CO)[C@@H](O)[C@@H]2O)c(=O)n1"
result = 6.44

[[record]]
molecule = "CN(C)C/C=C/C(=O)Nc1cc2c(Nc3ccc(F)c(Cl)c3)ncnc2cc1O[C@H]1CCOC1"
result = "< 6.30"


====

Test system: SK-LU-1;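 also: cell viability assay measuring growth inhibition of human SK-LU-1 cells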
Assay: cells
Type: functional, cell-based, Homo sapiens
Conditions: Homo sapiens, SK-LU-1
Description: SANGER: Inhibition of human SK-LU-1 cell growth in a cell viability assay.
pIC50: −log10 of the molar value.
Here the recorded pIC50 is given for each entry.
measurementLabel: pIC50

[[record]]
compound = "COc1cc(F)c(F)c(Nc2ccc(I)cc2F)c1NS(=O)(=O)C1(CC(O)CO)CC1 (stereo unspecified)"
censoringoperator = "<"
numericresult = 5.30

[[record]]
compound = "Cn1cncc1[C@@](N)(c1ccc(Cl)cc1)c1ccc2c(c1)c(-c1cccc(Cl)c1)cc(=O)n2C"
censoringoperator = "="
numericresult = 5.45

[[record]]
compound = "Nc1ccn([C@@H]2O[C@H](CO)[C@@H](O)[C@@H]2O)c(=O)n1"
censoringoperator = "="
numericresult = 5.88

[[record]]
compound = "Cn1cc(C2=C(c3ccc(Cl)cc3Cl)C(=O)NC2=O)c2ccccc21"
censoringoperator = "<"
numericresult = 5.00

[[record]]
compound = "C=CCNC1=C2C[C@@H](C)C[C@H](OC)[C@H](O)[C@@H](C)/C=C(\\C)[C@H](OC(N)=O)[C@@H](OC)/C=C\\C=C(/C)C(=O)NC(=CC1=O)C2=O"
censoringoperator = "="
numericresult = 7.51

[[record]]
compound = "CN(Cc1cnc2nc(N)nc(N)c2n1)c1ccc(C(=O)N[C@@H](CCC(=O)O)C(=O)O)cc1 [METHOTREXATE]"
censoringoperator = "<"
numericresult = 6.70


====

Tested on: GMS-10;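 also: growth inhibition of GMS-10 cells, read out as cell viability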
Experiment: cells
Type: functional, cell-based, Homo sapiens
Conditions: Homo sapiens, GMS-10
Description: SANGER: Inhibition of human GMS-10 cell growth in a cell viability assay.
Listing of recorded IC50 by entry.
measurementLabel: IC50 (nM)

[[record]]
compound = "Nc1ccn([C@@H]2O[C@H](CO)[C@@H](O)[C@@H]2O)c(=O)n1 [CYTARABINE]"
unitofmeasure = "nM"
censoringoperator = "="
numericresult = 396

[[record]]
compound = "CN(C)C/C=C/C(=O)Nc1cc2c(Nc3ccc(F)c(Cl)c3)ncnc2cc1O[C@H]1CCOC1 [AFATINIB]"
unitofmeasure = "nM"
censoringoperator = ">"
numericresult = 500

[[record]]
compound = "CN(Cc1cnc2nc(N)nc(N)c2n1)c1ccc(C(=O)N[C@@H](CCC(=O)O)C(=O)O)cc1 [METHOTREXATE]"
unitofmeasure = "nM"
censoringoperator = ">"
numericresult = 200

[[record]]
compound = "CC(=O)O[C@@]12CO[C@@H]1C[C@H](O)[C@@]1(C)C(=O)[C@H](O)C3=C(C)[C@@H](OC(=O)[C@H](O)[C@@H](NC(=O)OC(C)(C)C)c4ccccc4)C[C@@](O)([C@@H](OC(=O)c4ccccc4)[C@H]21)C3(C)C [DOCETAXEL]"
unitofmeasure = "nM"
censoringoperator = "="
numericresult = 0.941

[[record]]
compound = "Cn1cncc1[C@@](N)(c1ccc(Cl)cc1)c1ccc2c(c1)c(-c1cccc(Cl)c1)cc(=O)n2C [TIPIFARNIB]"
unitofmeasure = "nM"
censoringoperator = ">"
numericresult = 16000

